Data origin: paper PMC8161015

- Measured on: COX-1 (Homo sapiens, UniProt P23219)
- Construct: pure human recombinant enzyme (h-COX-1)
- Sequence (P23219 24-599): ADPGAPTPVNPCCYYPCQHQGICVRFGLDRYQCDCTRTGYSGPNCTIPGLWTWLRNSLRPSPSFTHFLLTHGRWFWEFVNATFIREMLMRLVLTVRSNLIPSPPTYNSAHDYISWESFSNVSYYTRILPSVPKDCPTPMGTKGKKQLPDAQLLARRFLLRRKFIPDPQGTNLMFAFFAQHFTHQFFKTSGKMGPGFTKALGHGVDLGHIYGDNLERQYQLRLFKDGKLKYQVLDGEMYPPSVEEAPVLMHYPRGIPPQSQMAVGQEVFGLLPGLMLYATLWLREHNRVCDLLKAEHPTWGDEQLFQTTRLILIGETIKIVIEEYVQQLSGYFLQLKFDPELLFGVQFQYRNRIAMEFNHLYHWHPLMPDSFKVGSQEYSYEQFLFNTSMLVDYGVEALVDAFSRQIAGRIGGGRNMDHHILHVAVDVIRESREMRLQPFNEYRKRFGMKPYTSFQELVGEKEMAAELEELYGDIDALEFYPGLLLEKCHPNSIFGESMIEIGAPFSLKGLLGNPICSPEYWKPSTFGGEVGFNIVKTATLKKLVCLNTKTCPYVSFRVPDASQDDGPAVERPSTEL
- Experimental protocol: colorimetric TMPD oxidation assay with purified human COX-1, arachidonic acid substrate
Measured property: pIC50
pIC50 is defined as minus the log10 of a concentration measured in mol/L.

Using COX-1 (Homo sapiens, UniProt P23219) as the test system, report measured pIC50 of O=c1ccc2cc(O[C@@H]3O[C@H](CO)[C@@H](O)[C@H](O)[C@H]3O)c(O)cc2o1 [a] .
2.35
